The origin of these recorded values is patent US11198713B2.

SYSTEM TESTED: full-length beta-catenin (Axin site) (Homo sapiens, UniProt P35222)
Construct: 15 nM full-length beta-catenin, 20 nM FITC labeled peptide in buffer
Sequence (P35222 whole entry): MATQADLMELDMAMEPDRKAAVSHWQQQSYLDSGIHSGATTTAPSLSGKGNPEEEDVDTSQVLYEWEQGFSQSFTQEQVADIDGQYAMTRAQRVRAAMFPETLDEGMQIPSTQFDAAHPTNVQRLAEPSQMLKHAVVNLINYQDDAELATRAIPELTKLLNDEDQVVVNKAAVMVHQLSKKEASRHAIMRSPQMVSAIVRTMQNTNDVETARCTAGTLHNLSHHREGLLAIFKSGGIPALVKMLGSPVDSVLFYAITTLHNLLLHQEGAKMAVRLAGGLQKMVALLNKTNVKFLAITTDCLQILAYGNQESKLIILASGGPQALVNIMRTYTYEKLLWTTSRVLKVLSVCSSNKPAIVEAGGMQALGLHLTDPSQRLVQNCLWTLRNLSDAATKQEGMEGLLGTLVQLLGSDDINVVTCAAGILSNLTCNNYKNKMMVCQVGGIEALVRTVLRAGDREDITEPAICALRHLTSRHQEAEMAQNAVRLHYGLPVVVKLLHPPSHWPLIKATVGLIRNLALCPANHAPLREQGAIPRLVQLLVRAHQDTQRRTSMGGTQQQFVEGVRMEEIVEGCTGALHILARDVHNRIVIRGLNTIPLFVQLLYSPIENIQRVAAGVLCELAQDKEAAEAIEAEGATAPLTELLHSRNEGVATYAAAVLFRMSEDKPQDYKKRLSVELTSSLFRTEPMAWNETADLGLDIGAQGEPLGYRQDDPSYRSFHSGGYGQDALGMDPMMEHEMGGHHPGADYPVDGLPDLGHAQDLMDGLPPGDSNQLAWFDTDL
ASSAY COMMENT: Competition fluorescence polarization assay (Axin site probe)
Format: binding
CONDITION SET: competition fluorescence polarization, Table 2; read-out: in vitro FP EC50
pEC50: −log10 of the molar value.
OBSERVED PROPERTY: pEC50

Lookup: Requested read-out: pEC50. Entry: CC[C@H](C)[C@@H]1NC(=O)[C@H](Cc2ccccn2)NC(=O)[C@H](C)NC(=O)[C@H](CC(=O)O)NC(=O)[C@H](CC(C)C)NC(=O)[C@H]([C@@H](C)CC)NC(=O)[C@](C)(NC(=O)[C@H](C)NC(C)=O)CCCCCCC=CCOC(=O)N2CC[C@@](C(=O)N[C@@H](Cc3cccs3)C(=O)N[C@H](C(=O)N[C@@H](Cc3c[nH]c4ccccc34)C(N)=O)C(C)C)(C2)NC1=O (single isomer, unassigned) [FP0571c Isomer 2, Ac-A-R8-I-L-D-A-2pyr-I-MB-thi-V-W-NH2]
Found: < 5.30

###

SYSTEM TESTED: full-length beta-catenin (Axin site) (Homo sapiens)
Construct: 15 nM full-length beta-catenin, 20 nM FITC labeled peptide in buffer
ASSAY COMMENT: Competition fluorescence polarization assay (Axin site probe)
Assay type: binding
CONDITION SET: competition fluorescence polarization, Table 2; read-out: in vitro FP EC50
OBSERVED PROPERTY: EC50

CC[C@H](C)[C@@H]1NC(=O)[C@](C)(NC(=O)[C@H](CCC(N)=O)NC(=O)[C@@H]2CCCN2C(C)=O)CCCCC=CCOC(=O)N2CC(C(=O)N[C@@H](Cc3c[nH]cn3)C(=O)N[C@H](C(=O)N[C@@H](CCCNC(=N)N)C(=O)N[C@@H](CCCNC(=N)N)C(=O)N[C@H](C(=O)N[C@@H](Cc3c[nH]c4ccccc34)C(=O)N[C@@H](CCCNC(=N)N)C(N)=O)C(C)C)C(C)C)(C2)NC(=O)[C@H](CC(=O)O)NC(=O)[C@H](CC(C)C)NC1=O (single isomer, unassigned) [FP0735c, Ac-P-Q-R6-I-L-D-MA-H-V-R-R-V-W-R-NH2]; 500 to 5000 nM

Lookup: Tell me the measured EC50 of CC[C@H](C)[C@@H]1NC(=O)[C@H](Cc2c[nH]cn2)NC(=O)[C@H](C)NC(=O)[C@H](CC(=O)O)NC(=O)[C@H](CC(C)C)NC(=O)[C@H]([C@@H](C)CC)NC(=O)[C@](C)(NC(=O)[C@H](C)NC(C)=O)CCCC=CCOC(=O)N(C)CCC[C@@](C)(C(=O)N[C@@H](CCCNC(=N)N)C(=O)N[C@H](C(=O)N[C@@H](Cc2c[nH]c3ccccc23)C(N)=O)C(C)C)NC1=O (single isomer, unassigned) [FP0510c Isomer 2, Ac-A-R5-I-L-D-A-H-I-MH-R-V-W-NH2] , please.
Found: < 100 nM

###

SYSTEM TESTED: full-length beta-catenin (Axin site) (Homo sapiens)
Construct: 15 nM full-length beta-catenin, 20 nM FITC labeled peptide in buffer
ASSAY COMMENT: Competition fluorescence polarization assay (Axin site probe)
Type: binding
CONDITION SET: competition fluorescence polarization, Table 2; read-out: in vitro FP EC50
Description: FIG. 1. […] Peptide solutions were prepared in buffer (50 mM Tris pH 8.0, 250 mM NaCl, 2% glycerol, 0.5 mM EDTA, 0.02% w/v sodium azide) using a 3-fold serial dilution from 5 μM. […] Equal volume of the titrated peptide was added to the plate and incubated protected from light for 15 minutes prior to read. Reads were performed on a Spectramax M5 (Molecular Devices) in duplicate. FIG. 7. […] Reads were performed on a Spectramax M5 (Molecular Devices) in duplicate. […]
pEC50: −log10 of the molar value.
OBSERVED PROPERTY: pEC50

CC[C@H](C)[C@@H]1NC(=O)[C@@](C)(NC(=O)[C@H](CCC(N)=O)NC(=O)[C@@H]2CCCN2C(C)=O)CCCCCC=CCN2CC[C@@](C(=O)N[C@@H](Cc3c[nH]cn3)C(=O)N[C@H](C(=O)N[C@@H](CCCNC(=N)N)C(=O)N[C@@H](CCCNC(=N)N)C(=O)N[C@H](C(=O)N[C@@H](Cc3c[nH]c4ccccc34)C(=O)N[C@@H](CCCNC(=N)N)C(N)=O)C(C)C)C(C)C)(C2)NC(=O)[C@H](CC(=O)O)NC(=O)[C@H](CC(C)C)NC1=O (single isomer, unassigned) [FP0763a, Ac-P-Q-S7-I-L-D-MB-H-V-R-R-V-W-R-NH2]; 5.30 to 6.30

Please look at the following compound next.
Lookup: I have this compound here, CC[C@H](C)[C@@H]1NC(=O)[C@H](Cc2ccccn2)NC(=O)[C@H](C)NC(=O)[C@H](CC(=O)O)NC(=O)[C@H](CC(C)C)NC(=O)[C@H]([C@@H](C)CC)NC(=O)[C@](C)(NC(=O)[C@H](C)NC(C)=O)CCCCCCC=CCOC(=O)N2CC[C@@](C(=O)N[C@@H](CC3CC3)C(=O)N[C@H](C(=O)N[C@@H](Cc3c[nH]c4ccccc34)C(N)=O)C(C)C)(C2)NC1=O (single isomer, unassigned) [FP0574c Isomer 1, Ac-A-R8-I-L-D-A-2pyr-I-MB-cpa-V-W-NH2] , and I need its recorded pEC50.
Found: < 5.30
